Biological target: HLA-DRβ1*1302 (Homo sapiens, UniProt P01903+P01911, A100E/A169T/K41T/L162R/M171V/P40S/Q125H/Q178H/Q39Y/Q99D/R42S/S66N/T262R/V115G/W38E/Y61H)
Sequence (P01903 26-254 limits assumed, other chains not shown): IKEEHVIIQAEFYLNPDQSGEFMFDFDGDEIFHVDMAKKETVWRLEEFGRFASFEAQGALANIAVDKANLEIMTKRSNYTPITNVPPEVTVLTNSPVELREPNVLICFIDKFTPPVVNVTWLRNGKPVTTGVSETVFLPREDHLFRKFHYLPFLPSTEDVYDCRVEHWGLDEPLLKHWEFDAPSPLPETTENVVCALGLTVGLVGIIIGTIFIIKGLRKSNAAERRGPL
Experiment: biochemical
Assay type: binding
Conditions: 50% displacement of biotinylated TT, 4.2 to 250 μM serial dilutions, second order exponential decay fit
No end group written: not given here.
Property measured: IC50 (µM)
# value in µM; strip the unit string

Some solved cases for reference:
| Biosequence | Unit spec | Result |
| --- | --- | --- |
| LGIIEVLIPSLPKKI [Peptide 39117] | µM | 6.65 |
| YNKIFYARVPQRIYQ [Peptide 39114] | µM | 73.3 |
| LTDLVMDHYNKIFYA [Peptide 39120] | µM | 38 |

Then there is this sequence:
Provide only the value of recorded IC50 for GCDFTKNTSPLFTKG [Peptide 39119] 7.47

---

Molecular target: HLA-DRβ1*0701 (Homo sapiens, UniProt P01903+P01911, A100R/A102G/A103Q/D57E/D86V/E43K/F76Y/K127E/L162R/M171V/P40G/Q125H/Q99D/R33Q/R42Y/R54Q/S133A/S66F/T210M/V115G/Y107V/Y59L/Y89S)
Assay: biochemical
Assay type: binding
Settings: 50% displacement of biotinylated TT, 4.2 to 250 μM serial dilutions, second order exponential decay fit
No end group written: not given here.
Measured pIC50 of individual entries
Remember the convention: pIC50 equals -log10 of concentration in molar.

Some solved cases for reference:
| Biosequence | pIC50 |
| --- | --- |
| RKNYELLPNNCFEQV [Peptide 39112] | 4.53 |
| LVEYLHGAAAIVKRK [Peptide 39118] | 4.82 |
| YNKIFYARVPQRIYQ [Peptide 39114] | 4.37 |

Provide only the value of recorded pIC50 for LGIIEVLIPSLPKKI [Peptide 39117] 4.94

---

Biological target: HLA-DRβ1*0401 (Homo sapiens, UniProt P01903+P01911, A100K/A169T/F76Y/I96L/K127E/L162R/M171V/N62H/P40V/Q125Y/R42H/S133A/S149N/S66Y/V115G/V209L/W38E)
Construct: endogenous in cells; host or cells: IHW09025 homozygous lymphoblastoid B-cell line (IHWG)
Assay: In vitro HLA-DRβ1 binding assay (competitive ELISA, biotinylated control peptide displacement)
Conditions: 24 h; read-out: Binding percentage
No end group written: not given here.
Property measured: inhibition at 250 µM (%)
# value in %; strip the unit string

Some solved cases for reference:
| Biosequence | Result |
| --- | --- |
| RKNYELLPNNCFEQV [Peptide 39112] | 95.8 |
| LGIIEVLIPSLPKKI [Peptide 39117] | 33.1 |
| GCDFTKNTSPLFTKG [Peptide 39119] | 17.4 |
| LVEYLHGAAAIVKRK [Peptide 39118] | 13.5 |
| LTDLVMDHYNKIFYA [Peptide 39120] | 26.7 |

Provide only the value of recorded inhibition at 250 µM for EECFLQGFNLSGKKE [Peptide 39113] 95.8

Provide only the value of recorded inhibition at 250 µM for KRLVAHFEFATTPDD [Peptide 39122] 80.9
